This collection of values is drawn from ChEMBL document CHEMBL1134638.

- measured.target: Tubulin beta chain (Bos taurus, UniProt Q6B856)
- Sequence (Q6B856 whole entry): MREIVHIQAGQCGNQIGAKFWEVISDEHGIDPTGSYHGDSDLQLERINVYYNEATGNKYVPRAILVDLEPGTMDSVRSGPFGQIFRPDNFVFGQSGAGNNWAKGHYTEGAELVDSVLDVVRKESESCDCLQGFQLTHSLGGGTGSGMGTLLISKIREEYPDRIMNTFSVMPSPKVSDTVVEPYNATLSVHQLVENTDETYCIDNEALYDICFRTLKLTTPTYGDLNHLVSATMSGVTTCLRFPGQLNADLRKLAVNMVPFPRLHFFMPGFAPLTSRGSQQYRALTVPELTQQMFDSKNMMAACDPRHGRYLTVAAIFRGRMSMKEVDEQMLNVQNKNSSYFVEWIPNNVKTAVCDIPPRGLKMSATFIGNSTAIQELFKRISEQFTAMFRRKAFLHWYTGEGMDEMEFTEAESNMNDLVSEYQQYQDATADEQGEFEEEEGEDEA
- procedure.text: Inhibition of tubulin polymerization
- Format: functional
experimental.readout: pIC50
Please keep in mind that pIC50 is minus log10 of the molar concentration; only the number is needed.

## Task What is its pIC50 for Tubulin beta chain (Bos taurus, UniProt Q6B856)? Entry: COc1ccc2[nH]c(C(=O)c3cccc(SC(F)F)c3)cc2c1
## Result 5.68

----------
- measured.target: Tubulin beta chain (Bos taurus, UniProt Q6B856)
- procedure.text: Inhibition of tubulin polymerization.
- Format: functional
experimental.readout: IC50

## Task Please look up its IC50: COc1ccc2[nH]c(C(=O)c3ccc(OC)c(OC)c3)cc2c1
## Result 0.81 µM

## Task Please look up its IC50: COc1ccc2[nH]c(C(=O)c3ccccc3OC)cc2c1
## Result 1.29 µM

## Task Please look up its IC50: COc1ccc2[nH]c(C(=O)c3cccc([N+](=O)[O-])c3C)cc2c1
## Result > 10 µM

## Task Please look up its IC50: COc1ccc2[nH]c(C(=O)c3cccc(C(F)(F)F)c3)cc2c1
## Result 1.5 µM

## Task Please look up its IC50: COc1ccccc1C(=O)c1cc2ccccc2[nH]1
## Result > 10 µM

## Task Please look up its IC50: COc1ccc2[nH]c(C(=O)c3ccc(Cl)cc3)cc2c1
## Result 5 µM

## Task Please look up its IC50: CCCC(=O)Oc1cccc(C(=O)c2cc3cc(OC)ccc3[nH]2)c1
## Result 0.85 µM

## Task Please look up its IC50: COc1cccc(C(=O)c2cc3cc(C)ccc3[nH]2)c1
## Result > 10 µM

## Task Please look up its IC50: COc1ccc2[nH]c(C(=O)c3ccc(OC)c(OC)c3OC)cc2c1
## Result > 10 µM

## Task Please look up its IC50: CCCc1ccc(C(=O)c2cc3cc(OC)ccc3[nH]2)cc1
## Result > 10 µM

## Task Please look up its IC50: COc1ccc2[nH]c(C(=O)c3cccc(OC)c3OC)cc2c1
## Result > 10 µM

## Task Please look up its IC50: CCc1ccc(C(=O)c2cc3cc(OC)ccc3[nH]2)cc1
## Result > 10 µM

## Task Please look up its IC50: COc1ccccc1C(=O)c1cc2cc(C)ccc2[nH]1
## Result 3.5 µM

## Task Please look up its IC50: COc1ccc2[nH]c(C(=O)c3ccccc3[N+](=O)[O-])cc2c1
## Result > 10 µM

## Task Please look up its IC50: COc1ccc(C(=O)c2cc3cc(OC)ccc3[nH]2)c(OC)c1
## Result 5.6 µM

## Task Please look up its IC50: COc1ccc2[nH]c(C(=O)c3cccc(F)c3)cc2c1
## Result 0.39 µM

## Task Please look up its IC50: COc1ccc2[nH]c(C(=O)c3ccccc3N)cc2c1
## Result 6.7 µM

## Task Please look up its IC50: COc1ccc2[nH]c(C(=O)c3ccc(Cl)c(Cl)c3)cc2c1
## Result 2.5 µM

## Task Please look up its IC50: COc1cc(OC)cc(C(=O)c2cc3cc(OC)ccc3[nH]2)c1
## Result 0.81 µM

## Task Please look up its IC50: COc1ccc2[nH]c(C(=O)c3cc(OC)c(OC)c(OC)c3)cc2c1
## Result 0.99 µM

## Task Please look up its IC50: COc1ccc2[nH]c(C(=O)c3cccc(OC)c3[N+](=O)[O-])cc2c1
## Result > 10 µM

## Task Please look up its IC50: COc1ccc2[nH]c(C(=O)c3ccc(Br)cc3)cc2c1
## Result 4.3 µM

## Task Please look up its IC50: COc1ccc2[nH]c(C(=O)c3ccccc3C)cc2c1
## Result 4.8 µM

## Task Please look up its IC50: COc1cccc(C(=O)c2cc3cc(OC)ccc3[nH]2)c1
## Result 0.53 µM
